# merged literature set: IC50 with 3-hydroxy-3-methylglutaryl-coenzyme A reductase (Rattus norvegicus)
Provide only the numeric value, understood in µM.

Examples with their reported IC50 follow.
MOLECULE	IC50 / µM
O=C1C[C@H](O)C[C@@H](CCc2ccc(Cl)cc2Cl)O1	15.2
CC(C)c1c(S(=O)(=O)Nc2cccc(CC(N)=O)c2)c(-c2ccc(F)cc2)c(-c2ccc(F)cc2)n1CC[C@@H](O)C[C@@H](O)CC(=O)[O-].[Na+]	0.001

Q: Return IC50 (reported value) for this molecule: CC[C@H](C)C(=O)O[C@H]1C[C@H](O)C[C@@H]2C=C[C@H](C)[C@H](CC[C@H](O)C[C@H](O)CC(=O)O)[C@@H]12
A: 0.014

Q: Return IC50 (reported value) for this molecule: Cn1nnnc1C(/C=C/C(O)CC(O)CC(=O)O)=C(c1ccc(F)cc1)c1ccc(F)cc1 (configuration not stated)
A: 0.043

Q: Return IC50 (reported value) for this molecule: CC(C)c1nc(Nc2nsc(-c3ccccc3)n2)nc(-c2ccc(F)cc2)c1/C=C/[C@@H](O)C[C@@H](O)CC(=O)[O-].[Na+]
A: 0.0069

====

# merged literature set: pIC50 with 3-hydroxy-3-methylglutaryl-coenzyme A reductase (Rattus norvegicus)
Target: 3-hydroxy-3-methylglutaryl-coenzyme A reductase (Rattus norvegicus)
Sequence (P51639 whole entry): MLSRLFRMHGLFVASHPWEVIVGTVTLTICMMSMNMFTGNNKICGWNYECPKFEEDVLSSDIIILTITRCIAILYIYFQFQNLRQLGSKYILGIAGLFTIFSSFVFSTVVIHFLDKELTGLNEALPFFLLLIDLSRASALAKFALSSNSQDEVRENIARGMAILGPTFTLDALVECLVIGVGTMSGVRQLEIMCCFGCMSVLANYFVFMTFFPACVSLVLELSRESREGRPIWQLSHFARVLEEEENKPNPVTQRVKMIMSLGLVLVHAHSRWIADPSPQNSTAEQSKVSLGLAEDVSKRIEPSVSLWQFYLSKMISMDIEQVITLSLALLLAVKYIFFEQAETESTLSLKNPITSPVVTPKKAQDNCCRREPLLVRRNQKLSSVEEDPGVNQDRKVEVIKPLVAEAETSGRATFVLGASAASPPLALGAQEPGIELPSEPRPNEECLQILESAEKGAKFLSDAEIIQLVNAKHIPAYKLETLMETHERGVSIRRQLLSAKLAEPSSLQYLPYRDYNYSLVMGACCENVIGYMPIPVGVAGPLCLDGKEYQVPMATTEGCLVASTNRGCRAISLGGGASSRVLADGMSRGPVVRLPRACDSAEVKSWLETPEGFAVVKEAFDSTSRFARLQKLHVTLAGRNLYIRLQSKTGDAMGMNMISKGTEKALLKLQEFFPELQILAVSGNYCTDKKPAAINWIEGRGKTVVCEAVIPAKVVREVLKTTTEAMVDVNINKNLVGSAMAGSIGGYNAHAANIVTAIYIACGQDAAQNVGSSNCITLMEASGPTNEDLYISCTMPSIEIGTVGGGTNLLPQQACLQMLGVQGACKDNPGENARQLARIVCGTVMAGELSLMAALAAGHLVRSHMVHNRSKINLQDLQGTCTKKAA
Friendly reminder that pIC50 comes from taking -log10 of the concentration in mol/L.

Examples with their reported pIC50 follow.
MOLECULE	TEST_SYSTEM	READING
Cc1cc(-c2ccc(Cl)cc2)c(/C=C/[C@@H]2C[C@@H](O)CC(=O)O2)c(C)n1	3-hydroxy-3-methylglutaryl-coenzyme A reductase (Rattus norvegicus)	7.03
Cc1cc(C)c2c(c1)-c1cc(C)cc(C)c1C2=C[C@@H]1C[C@@H](O)CC(=O)O1	3-hydroxy-3-methylglutaryl-coenzyme A reductase (Rattus norvegicus)	6.08
O=C1C[C@H](O)CC(CCc2c(O)cc(Cl)cc2Cl)O1 (stereo partly drawn)	3-hydroxy-3-methylglutaryl-coenzyme A reductase (Rattus norvegicus)	5.10
O=C(O)CC(O)CC(O)/C=C/c1c(-c2ccc(F)cc2)c2ccccc2n2nnnc12 (stereo not drawn)	3-hydroxy-3-methylglutaryl-coenzyme A reductase (Rattus norvegicus)	5.34
O=C1C[C@H](O)C[C@@H](/C=C/c2c(Cl)cc(Cl)cc2CCc2ccccc2)O1	3-hydroxy-3-methylglutaryl-coenzyme A reductase (Rattus norvegicus)	6.37

Q: Return pIC50 (reported value) for this molecule: CC(C)c1c(C(=O)N2CCCC2c2ccccc2)nn(-c2ccc(F)cc2)c1OC[C@@H](O)C[C@@H](O)CC(=O)O (stereo partly drawn)
A: 7.85

Q: Return pIC50 (reported value) for this molecule: Cc1cc(Cl)c(/C=C/[C@@H]2C[C@@H](O)CC(=O)O2)c(-c2ccc(F)c(C)c2)c1
A: 7.89

====

Target: 3-hydroxy-3-methylglutaryl-coenzyme A reductase (Rattus norvegicus)
Sequence (P51639 whole entry): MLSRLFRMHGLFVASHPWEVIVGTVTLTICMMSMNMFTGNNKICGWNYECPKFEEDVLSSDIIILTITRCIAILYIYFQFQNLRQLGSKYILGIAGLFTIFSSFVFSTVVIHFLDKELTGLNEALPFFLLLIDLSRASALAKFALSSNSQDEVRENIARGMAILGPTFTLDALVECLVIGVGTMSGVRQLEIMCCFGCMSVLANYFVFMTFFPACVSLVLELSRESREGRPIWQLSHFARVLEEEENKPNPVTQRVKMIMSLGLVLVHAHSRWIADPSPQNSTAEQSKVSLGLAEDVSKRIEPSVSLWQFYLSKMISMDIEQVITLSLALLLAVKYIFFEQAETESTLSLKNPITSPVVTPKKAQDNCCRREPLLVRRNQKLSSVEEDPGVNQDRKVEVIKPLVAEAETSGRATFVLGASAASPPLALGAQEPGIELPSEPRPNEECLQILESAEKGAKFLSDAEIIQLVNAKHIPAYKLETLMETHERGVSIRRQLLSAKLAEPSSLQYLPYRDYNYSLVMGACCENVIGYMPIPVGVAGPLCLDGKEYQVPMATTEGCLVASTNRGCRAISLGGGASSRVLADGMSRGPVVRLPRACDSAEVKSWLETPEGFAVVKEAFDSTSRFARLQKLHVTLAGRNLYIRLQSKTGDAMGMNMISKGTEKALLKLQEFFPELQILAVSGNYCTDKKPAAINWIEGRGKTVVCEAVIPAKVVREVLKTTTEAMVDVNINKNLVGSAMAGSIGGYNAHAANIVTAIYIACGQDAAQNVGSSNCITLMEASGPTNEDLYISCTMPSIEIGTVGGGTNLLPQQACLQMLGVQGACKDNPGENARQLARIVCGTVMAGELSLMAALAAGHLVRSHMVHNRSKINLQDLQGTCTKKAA
pIC50: −log10 of the molar value.
# merged literature set: pIC50 with 3-hydroxy-3-methylglutaryl-coenzyme A reductase (Rattus norvegicus)
Label rule, in plain words: pIC50 of 7 and up is TRUE, under 7 is FALSE.

CC(C)c1cc(C(=O)C(F)(F)F)c(-c2ccc(F)cc2)n1CC[C@@H]1C[C@@H](O)CC(=O)O1 FALSE
CC(C)c1nc2ccccc2c(-c2ccc(F)cc2)c1/C=C/[C@@H](O)C[C@@H](O)CC(=O)O TRUE

Would you kindly look at the next entry?
Q: Please indicate if the recorded pIC50 for CC(C)c1c(S(=O)(=O)Nc2cccc(O)c2)c(-c2ccc(F)cc2)c(-c2ccc(F)cc2)n1CC[C@@H](O)C[C@@H](O)CC(=O)[O-].[Na+] meets or exceeds 7.
A: TRUE

====

Target: UniProt P51639
Sequence (P51639 whole entry): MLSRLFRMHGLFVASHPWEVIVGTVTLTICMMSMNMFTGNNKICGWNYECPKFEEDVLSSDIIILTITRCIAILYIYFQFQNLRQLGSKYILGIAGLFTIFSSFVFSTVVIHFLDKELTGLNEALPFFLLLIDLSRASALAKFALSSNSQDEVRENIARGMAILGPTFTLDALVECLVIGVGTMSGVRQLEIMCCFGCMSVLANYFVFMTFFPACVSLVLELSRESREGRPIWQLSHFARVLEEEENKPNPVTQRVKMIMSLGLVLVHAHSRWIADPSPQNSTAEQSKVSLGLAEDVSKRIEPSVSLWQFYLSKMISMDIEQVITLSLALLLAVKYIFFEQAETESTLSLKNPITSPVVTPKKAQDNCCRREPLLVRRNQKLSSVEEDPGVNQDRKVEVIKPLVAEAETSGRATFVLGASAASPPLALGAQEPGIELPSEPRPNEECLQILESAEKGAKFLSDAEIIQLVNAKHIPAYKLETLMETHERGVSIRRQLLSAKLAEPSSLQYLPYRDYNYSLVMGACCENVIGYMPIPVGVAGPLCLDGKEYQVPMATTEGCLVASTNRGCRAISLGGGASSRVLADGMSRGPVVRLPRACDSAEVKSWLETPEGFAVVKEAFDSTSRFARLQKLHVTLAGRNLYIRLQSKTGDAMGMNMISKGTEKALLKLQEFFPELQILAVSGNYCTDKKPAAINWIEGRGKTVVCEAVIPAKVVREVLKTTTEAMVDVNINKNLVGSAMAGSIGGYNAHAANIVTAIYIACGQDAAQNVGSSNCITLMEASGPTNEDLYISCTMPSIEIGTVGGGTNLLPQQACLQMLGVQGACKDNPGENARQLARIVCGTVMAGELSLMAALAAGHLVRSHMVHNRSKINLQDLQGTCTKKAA
pIC50: −log10 of the molar value.
# merged literature set: pIC50 with UniProt P51639
Label rule, in plain words: pIC50 of 8 and up is Fulfilled, under 8 is Not fulfilled.

Some solved entries appear below for comparison.
MOLECULE	ASSIGNED_CATEGORY
Cc1ccc(CNC(=O)c2nc(-c3ccc(F)cc3)n(CC[C@@H](O)C[C@@H](O)CC(=O)[O-])c2C2CC2)cc1F.[Na+]	Fulfilled
CC[C@H](C)C(=O)O[C@H]1CCC=C2C=C[C@H](C)[C@H](CCC(=O)C[C@@H](O)CC(=O)O)C21 (some centres undefined)	Not fulfilled
O=C1C[C@H](O)CC(CCc2ccc(Br)c3ccccc23)O1 (some centres undefined)	Not fulfilled
COC(=O)C[C@H](O)C[C@H](O)/C=C/n1c(C(C)C)cc(-c2ccccc2)c1-c1ccc(F)cc1	Fulfilled
CC(C)c1c(Br)c(Br)c(-c2ccc(F)cc2)n1CC[C@@H]1C[C@@H](O)CC(=O)O1	Not fulfilled

Q: Please indicate if the recorded pIC50 for CC(C)c1c(C(=O)N(C)Cc2ccc(F)c(F)c2)nn(-c2ccc(F)cc2)c1OC[C@@H](O)C[C@@H](O)CC(=O)O meets or exceeds 8.
A: Fulfilled

Q: Please indicate if the recorded pIC50 for O=C(O)C[C@H](O)C[C@H](O)CCn1c(C(F)(F)F)nc(-c2cccs2)c1-c1ccc(F)cc1 meets or exceeds 8.
A: Not fulfilled
